Source listed as PubChem BioAssay.

# Assay Details: small molecules captured by biotinylated probe aFST – biochemical, small-molecule microarray, fluorescence 635/667, stem cell growth factor project, primary screen (AID 1086);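 also: score merges 667 nm fluorescence with signal-to-noise of each printed compound spot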
# Stated Conditions: higher = more signal
Each record gets a class by composite z-score: group 1: < 0.1; group 2: ≥ 0.1 and < 0.2; group 3: ≥ 0.2

These solved cases illustrate the format of a correct answer.
# Compound, Group Label
rows = [
    ("O=C1C[C@@](C(=O)NCc2ccccc2)(c2ccc([N+](=O)[O-])cc2)[C@@H](c2ccc(CO)cc2)N1C1CCCCC1", "group 2"),
    ("COC(=O)C1=CC(CCCO)=CC(c2cccs2)N(Cc2cc3c(cc2Br)OCO3)C=C1C(=O)OC (centres undefined)", "group 2"),
    ("C=C(COC)C(=O)CC[C@H](OC(=O)c1cccnc1)c1ccc(OCCO)cc1", "group 3"),
]

Next up:
Category lookup for the compound `COc1ccc(C#Cc2ccc3c(c2)[C@]2(C(=O)N3)[C@H](C(=O)O)[C@H]3C(=O)O[C@H](c4ccccc4)[C@H](c4ccccc4)N3[C@@H]2c2ccccc2OCCO)cc1`
group 1

###

# Test Target: Pro-neuregulin-1, membrane-bound isoform (Homo sapiens) (UniProt Q02297)
# Sequence (Q02297 whole entry, looked up, canonical isoform): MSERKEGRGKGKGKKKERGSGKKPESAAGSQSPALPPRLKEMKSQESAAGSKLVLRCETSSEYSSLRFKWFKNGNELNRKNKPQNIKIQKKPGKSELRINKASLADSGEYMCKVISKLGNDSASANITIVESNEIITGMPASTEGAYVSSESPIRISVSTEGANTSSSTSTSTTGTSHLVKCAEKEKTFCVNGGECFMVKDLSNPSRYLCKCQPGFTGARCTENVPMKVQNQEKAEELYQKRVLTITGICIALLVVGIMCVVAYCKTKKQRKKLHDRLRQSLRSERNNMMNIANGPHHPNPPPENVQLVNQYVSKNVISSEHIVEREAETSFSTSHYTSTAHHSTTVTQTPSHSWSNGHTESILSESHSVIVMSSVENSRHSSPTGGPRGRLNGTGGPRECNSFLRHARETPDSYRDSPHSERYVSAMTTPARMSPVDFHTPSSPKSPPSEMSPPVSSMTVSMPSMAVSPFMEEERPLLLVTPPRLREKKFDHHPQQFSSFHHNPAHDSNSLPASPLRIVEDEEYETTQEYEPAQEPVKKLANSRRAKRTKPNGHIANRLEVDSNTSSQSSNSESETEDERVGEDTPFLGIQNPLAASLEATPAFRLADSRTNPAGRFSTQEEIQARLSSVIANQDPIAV
# Assay Details: small molecules binding neuregulin-1 protein – biochemical, small-molecule microarray, fluorescence 635/667, psychiatric disease protein project, primary screen (AID 1075);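 also: score combines 667 nm spot fluorescence with signal to noise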
# Stated Conditions: NRG1 binding, 635 nm fluorescence, higher = more signal
Outcome Measure: composite z-score
// return a plain number; no unit text

Past entries and their recorded results:
# Compound, Outcome Measure, Result Value
measured = [
    ("C=C(CCCC)/C(=C/C[C@H](OC(=O)c1ccncc1)c1cccc(OCCO)c1)c1cnc2ccccc2c1", "composite z-score", 1.56),
    ("O=C1C=C(c2ccccc2)C(=O)C2=C1CC([C@H]1Oc3ccccc3S(=O)(=O)N3CCC[C@@H]13)=CC2", "composite z-score", 0.0032),
    ("C=CCNC(=O)[C@H]1[C@@H]2C(=O)O[C@@H](c3ccccc3)[C@@H](c3ccccc3)N2[C@@H](c2ccc(OCCO)cc2)[C@]12C(=O)Nc1ccccc12", "composite z-score", 1.65),
    ("CCCC=C(CCC)[C@@H](NC(=O)OCC(C)C)c1ccc(C(=O)OC)cc1", "composite z-score", 0.224),
    ("Cc1ccc(S[C@]2(C(=O)NC(C)C)CC(=O)N(C3CCCCC3)[C@@H]2c2ccc(CO)cc2I)cc1", "composite z-score", 0.897),
    ("[N-]=[N+]=Nc1ccccc1[C@@H]1OC(c2ccc(OCCCO)cc2)=N[C@]1(Cc1ccccc1)C(=O)NCCN1CCOCC1", "composite z-score", -0.238),
    ("O=C1C2C=CC(C(O)c3ccc([N+](=O)[O-])cc3)N(Nc3ccccc3F)C2C(=O)N1c1ccccc1 (stereo not drawn)", "composite z-score", 1.6),
]

Consider now this further compound.
// lookup composite z-score for `C=C(/C(=C/C[C@@H](OC(C)=O)c1cccc(OCCO)c1)c1cnc2ccccc2c1)C(C)C`
0.41

###

# Assay Details: probe aLefty2 binding to arrayed compounds – biochemical, biotinylated probe, 635/667 nm fluorescence, primary screen (AID 1094);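 also: score merges spot fluorescence near 667 nm with spot signal-to-noise ratio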
# Stated Conditions: small-molecule microarray, higher = more signal
Parameter: composite z-score. Scope: all listed entries.
Write the value as a bare number.

Known composite z-score results, listed for orientation:
# Compound, Result Value
rows = [
    ("O=C(NCC(O)CO)[C@@]1(CCS(=O)(=O)c2ccccc2)N=C(c2ccc(OCCCO)cc2)O[C@H]1c1ccccc1 (some centres not stated)", 0.471),
    ("O=C1C[C@@](C(=O)NC2CC2)(c2ccc([N+](=O)[O-])cc2)[C@@H](c2ccc(CO)cc2)N1C1CCCCC1", -0.0139),
    ("C=C(CCCC)C(=O)CC[C@H](OC(=O)c1ccccc1-c1ccccc1C(=O)O)c1ccc(OCCO)cc1", -0.0563),
    ("COc1cc(C(O)C2C=CC3C(=O)N(c4ccccc4)C(=O)C3N2Nc2ccccc2F)cc(OC)c1OC (configuration not stated)", 0.122),
    ("COCCOC(=O)N1C(=O)[C@@]2(c3cc(C#CCC(C(=O)OC)C(=O)OC)ccc31)[C@H](c1ccc(O)cc1)N1[C@H](c3ccccc3)[C@H](c3ccccc3)OC(=O)[C@H]1[C@@H]2C(=O)Nc1nc2ccccc2s1", 0.0424),
]

Sample `O=C(NCc1ccccc1)[C@@H]1c2ccccc2C(=O)N(Cc2cc(C(F)(F)F)cc(C(F)(F)F)c2)[C@H]1c1ccc(CO)cc1` — what was its composite z-score?
-0.0512

Need composite z-score, item `CCOC(=O)C1=CC[C@@H](c2ccc(OC)cc2)N(S(=O)(=O)c2ccc(C)cc2)[C@H]1CC`
0.0319
